- Target Under Test: D(2) dopamine receptor (Bos taurus, UniProt P20288)
- Sequence (P20288 whole entry): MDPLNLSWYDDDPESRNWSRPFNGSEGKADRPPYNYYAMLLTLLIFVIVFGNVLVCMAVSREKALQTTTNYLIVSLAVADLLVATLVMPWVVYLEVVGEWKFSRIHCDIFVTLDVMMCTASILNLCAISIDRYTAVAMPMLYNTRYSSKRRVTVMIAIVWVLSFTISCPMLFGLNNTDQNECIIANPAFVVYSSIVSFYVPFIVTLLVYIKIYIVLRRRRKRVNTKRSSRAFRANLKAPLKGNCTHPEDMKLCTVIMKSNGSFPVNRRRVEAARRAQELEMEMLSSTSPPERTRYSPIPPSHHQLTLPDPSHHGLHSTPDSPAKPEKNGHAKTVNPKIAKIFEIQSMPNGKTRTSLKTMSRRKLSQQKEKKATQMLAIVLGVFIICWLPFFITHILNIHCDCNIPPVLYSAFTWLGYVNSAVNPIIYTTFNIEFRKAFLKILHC
- Test Description: Displacement of [3H]Spiperone from dopamine D2 receptor in bovine caudate nuclei synaptosomal membrane by liquid scintillation spectrometry
# if measured Ki < 20 nM: satisfied  # else: not satisfied

Compound | Group Label
Clc1ccccc1N1CCN(CCc2cc(Cl)c3nc[nH]c3c2)CC1 | satisfied
FC(F)(F)c1cccc(N2CCN(CCc3ccc4nc[nH]c4c3)CC2)c1 | not satisfied
c1cnc(N2CCN(CCc3ccc4nc[nH]c4c3)CC2)nc1 | not satisfied
COc1ccccc1N1CCN(CCc2ccc3nc[nH]c3c2)CC1 | satisfied
Clc1cc(CCN2CCN(c3ncccn3)CC2)cc2[nH]cnc12 | not satisfied
c1ccc(N2CCN(CCc3ccc4nc[nH]c4c3)CC2)cc1 | not satisfied
